Reported Fluorescence intensity (A) by item:
- Tgt: albumin (BSA) (Bos taurus, UniProt P02769)
- Sequence (P02769 25-607): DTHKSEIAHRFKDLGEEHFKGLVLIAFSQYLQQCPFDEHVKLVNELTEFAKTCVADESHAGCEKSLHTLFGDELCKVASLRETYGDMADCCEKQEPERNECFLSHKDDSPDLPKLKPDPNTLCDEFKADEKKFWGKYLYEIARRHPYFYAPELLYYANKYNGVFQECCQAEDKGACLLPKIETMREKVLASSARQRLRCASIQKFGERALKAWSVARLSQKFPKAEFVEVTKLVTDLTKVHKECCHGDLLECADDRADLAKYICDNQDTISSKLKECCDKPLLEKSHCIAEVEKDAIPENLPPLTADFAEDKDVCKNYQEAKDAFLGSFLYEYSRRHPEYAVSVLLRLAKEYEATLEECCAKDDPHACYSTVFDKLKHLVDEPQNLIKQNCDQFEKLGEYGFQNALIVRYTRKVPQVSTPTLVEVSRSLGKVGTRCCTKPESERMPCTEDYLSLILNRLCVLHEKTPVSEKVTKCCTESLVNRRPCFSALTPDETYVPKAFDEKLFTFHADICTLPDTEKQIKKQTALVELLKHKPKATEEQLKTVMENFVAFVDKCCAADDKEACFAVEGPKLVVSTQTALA
- Assay remarks: Fluorescence intensity before and after change in external environment (addition of 5 wt % BSA)
- Reported conditions: lactosome containing 20 mol % of dye (IC7-2: 15 mol %); after addition of 5 wt % BSA

| Compound | Tgt | Fluorescence intensity (A) |
| --- | --- | --- |
| O=C(O)c1ccccc1C1=c2cc3c4c(c2Oc2c1cc1c5c2CCCN5CCC1)CCC[N+]=4CCC3 | albumin (BSA) (Bos taurus, UniProt P02769) | 171710 |
| N#CC1=c2cc3c4c(c2Oc2c1cc1c5c2CCCN5CCC1)CCC[N+]=4CCC3 | albumin (BSA) (Bos taurus, UniProt P02769) | 139250 |
| CC1(C)C(/C=C/C2=C(Cl)C(=C/C=C3/C=CN(CCO)c4ccccc43)/CCC2)=[N+](CCCCCC(=O)O)c2ccc3ccccc3c21.[I-] | albumin (BSA) (Bos taurus, UniProt P02769) | 185345 |
| CC1(C)C(/C=C/C=C/C=C/C=C2\N(CCCCS(=O)(=O)O)c3ccc4ccccc4c3C2(C)C)=[N+](CCCCS(=O)(=O)[O-])c2ccc3ccccc3c21 | albumin (BSA) (Bos taurus, UniProt P02769) | 148650 |
| CC1(C)C(/C=C/C2=C(Cl)C(=C/C=C3\N(CCCCCC(=O)O)c4ccc5ccccc5c4C3(C)C)/CCC2)=[N+](CCO)c2ccc3ccccc3c21.[I-] | albumin (BSA) (Bos taurus, UniProt P02769) | 92384 |

---

- Assay remarks: Fluorescence intensity before and after change in external environment (addition of plasma)
- Reported conditions: lactosome (PSar-PLLA) containing 20 mol % of dye (IC7-2: 15 mol %); addition of plasma; polymer 1/15 mg/mL

| Compound | Fluorescence maximum |
| --- | --- |
| CC1(C)C(/C=C/C=C/C=C/C=C2\N(CCCCS(=O)(=O)O)c3ccc4ccccc4c3C2(C)C)=[N+](CCCCS(=O)(=O)[O-])c2ccc3ccccc3c21 | 824 nm |
| N#CC1=c2cc3c4c(c2Oc2c1cc1c5c2CCCN5CCC1)CCC[N+]=4CCC3 | 699 nm |
| CC1(C)C(/C=C/C2=C(Cl)C(=C/C=C3\N(CCCCCC(=O)O)c4ccc5ccccc5c4C3(C)C)/CCC2)=[N+](CCO)c2ccc3ccccc3c21.[I-] | 844 nm |
| O=C(O)c1ccccc1C1=c2cc3c4c(c2Oc2c1cc1c5c2CCCN5CCC1)CCC[N+]=4CCC3 | 601 nm |
| CC1(C)C(/C=C/C2=C(Cl)C(=C/C=C3/C=CN(CCO)c4ccccc43)/CCC2)=[N+](CCCCCC(=O)O)c2ccc3ccccc3c21.[I-] | 901 nm |
